Tested on: 328373-195-R-J1-PDC complex spheroids, viability % test/control;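 further: spheroids exposed to the agents for 7 days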
Experiment: Anticancer human tumor 328373-195-R-J1-PDC patient-derived head and neck squamous carcinoma cell line growth inhibition [CLK]
Conditions: second compound 0.1 µM; first compound 3.16 µM; stronger effect = lower value
Binary call on viability, T/C with cut-off 9%: strictly below means rule met, and equality or higher means rule not met.

Solved entries:
COMPOUND	LABEL
COc1ccc([C@@H](O)c2cc(-c3ncnc4cc(N5CCOCC5)ccc34)c(F)cc2Cl)nn1 + CN1CCN(c2cc(C(=O)Nc3cc4cc(-c5cnn(C)c5)ccc4cn3)ccn2)CC1	rule not met
COc1cccc2c1C(=O)c1c(O)c3c(c(O)c1C2=O)CC(O)(C(=O)CO)CC3OC1CC(N)C(O)C(C)O1 (stereo not given) + CN1CCN(c2cc(C(=O)Nc3cc4cc(-c5cnn(C)c5)ccc4cn3)ccn2)CC1	rule met
COc1ccc([C@@H](O)c2cc(-c3ncnc4cc(N5CCOCC5)ccc34)c(F)cc2Cl)nn1 + CNC(=O)c1ccc(Nc2nc(OC3CCCC3)c3c(-c4ccc5nc(C)oc5c4)c[nH]c3n2)c(OC)c1	rule not met
O=c1[nH]cc(F)c(=O)[nH]1 + CNC(=O)c1ccc(Nc2nc(OC3CCCC3)c3c(-c4ccc5nc(C)oc5c4)c[nH]c3n2)c(OC)c1	rule met
COC1C=CCC(C)C(C)S(=O)(=O)NC(=O)c2ccc3c(c2)N(CC2CCC21)CC1(CCCc2cc(Cl)ccc21)CO3 (stereo not given) + CN1CCN(c2cc(C(=O)Nc3cc4cc(-c5cnn(C)c5)ccc4cn3)ccn2)CC1	rule not met
Nc1ccn(C2OC(CO)C(O)C2(F)F)c(=O)n1 (stereo not given) + CN1CCN(c2cc(C(=O)Nc3cc4cc(-c5cnn(C)c5)ccc4cn3)ccn2)CC1	rule met
C#Cc1c(F)ccc2cc(O)cc(-c3ncc4c(N5CC6CCC(C5)N6)nc(OCC56CCCN5CC(F)C6)nc4c3F)c12 (stereo not given) + CN1CCN(c2cc(C(=O)Nc3cc4cc(-c5cnn(C)c5)ccc4cn3)ccn2)CC1	rule not met
C=C(F)C(=O)N1CCN(c2nc(OCC3CCCN3C)nc3c2CCN(c2cccc4cccc(Cl)c24)C3)CC1CC#N (stereo not given) + CN1CCN(c2cc(C(=O)Nc3cc4cc(-c5cnn(C)c5)ccc4cn3)ccn2)CC1	rule not met

Q) Problem: For the compound CC1(C)CCC(CN2CCN(c3ccc(C(=O)NS(=O)(=O)c4ccc(NCC5CCOCC5)c([N+](=O)[O-])c4)c(Oc4cnc5[nH]ccc5c4)c3)CC2)=C(c2ccc(Cl)cc2)C1 + CNC(=O)c1ccc(Nc2nc(OC3CCCC3)c3c(-c4ccc5nc(C)oc5c4)c[nH]c3n2)c(OC)c1 , is viability, T/C under 9%?
A) rule not met
